TARGET_SYSTEM: human PAH with the R408W mutation (Homo sapiens, UniProt P00439, R408W)
Construct: expressed in transfected cells
Sequence (P00439 1-452 R408W): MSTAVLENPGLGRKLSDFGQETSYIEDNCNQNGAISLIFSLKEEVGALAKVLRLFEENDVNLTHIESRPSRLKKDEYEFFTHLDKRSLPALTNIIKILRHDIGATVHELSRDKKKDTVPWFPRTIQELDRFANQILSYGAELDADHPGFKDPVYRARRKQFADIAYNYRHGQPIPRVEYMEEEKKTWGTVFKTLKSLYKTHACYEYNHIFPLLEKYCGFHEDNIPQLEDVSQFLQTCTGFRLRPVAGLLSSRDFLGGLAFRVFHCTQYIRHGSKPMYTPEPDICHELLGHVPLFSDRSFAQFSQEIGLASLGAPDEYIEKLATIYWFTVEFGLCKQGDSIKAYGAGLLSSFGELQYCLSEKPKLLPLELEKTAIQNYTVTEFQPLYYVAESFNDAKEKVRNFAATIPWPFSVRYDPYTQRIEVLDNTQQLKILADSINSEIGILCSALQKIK
ASSAY_PROCEDURE: Cell Based Phenylalanine Flux Assay
PARTICULARS: A375 R408W cells, 24 hrs with compound, then 20 μM sepiapterin and 800 μM 13C9,15N-Phenylalanine for 4 hours; 13C-Tyrosine by LC-MS; average where tested multiple times; read-out: AC50
MEASURED_ATTRIBUTE: AC50

The following compounds each have a reported value; give each one's AC50.
1. O=C(Cc1cscn1)N1CCc2[nH]cnc2C1c1cn2ccccc2n1 (centres unmarked)
2. O=C(c1nnc(N2CC(F)C2)o1)N1CCc2[nH]cnc2C1c1ncc2ccccc2n1 (centres unmarked)
3. O=C(c1cnn(CC(F)(F)F)c1Cl)N1CCc2[nH]cnc2C1c1ccc2ccccc2n1 (centres unmarked)
4. O=C(Cc1ccccn1)N1CCc2[nH]cnc2C1c1cn2ccccc2n1 (centres unmarked)
5. Cc1nc(N)oc1C(=O)N1CCc2[nH]cnc2C1c1ccc2ccccc2n1 (centres unmarked)

1 to 5 µM
1 to 5 µM
1 to 5 µM
> 5 µM
1 to 5 µM

* * *

TARGET_SYSTEM: human PAH with the R408W mutation (Homo sapiens, UniProt P00439, R408W)
Construct: expressed in transfected cells
ASSAY_PROCEDURE: Cell Based Phenylalanine Flux Assay
PARTICULARS: A375 cells expressing human R408W PAH; 24 hrs compound incubation; 13C-Tyrosine by LC-MS; average where tested multiple times; read-out: AC50
Counter-ions that a name gives are not always drawn.
MEASURED_ATTRIBUTE: AC50

As a guide, the following entries are already answered.
INSERT INTO measurements (compound, result) VALUES
  ('CC(F)(F)c1ncc(C(=O)N2CCc3[nH]cnc3[C@H]2c2cc3ccccc3cn2)s1 [Example 376, hydrochloride]', '< 500 nM'),
  ('C[C@H](O)c1nc(C(F)F)c(C(=O)N2CCc3[nH]cnc3C2c2ccc3ccccc3n2)o1 (stereo in doubt) [Example 121]', '1000 to 5000 nM'),
  ('O=C(c1nnc(-c2ccc(C(F)(F)F)cn2)o1)N1CCc2[nH]cnc2[C@H]1c1cc2ccccc2cn1 [Example 442]', '< 500 nM'),
  ('O=C(c1cnc(-c2ccccn2)s1)N1CCc2[nH]cnc2[C@H]1c1ccc2ccccc2c1 [Example 223]', '1000 to 5000 nM');

I would be grateful if you could provide AC50 for each of the following entries.
1. O=C(c1cnc(-c2ccccn2)s1)N1CCc2[nH]cnc2C1c1ccc2ccccc2n1 (stereo in doubt) [Example 2]
2. CC(C)(C#N)c1nc(C(F)F)c(C(=O)N2CCc3[nH]cnc3C2c2ccc3ccccc3n2)o1 (stereo in doubt) [Example 128]
3. O=C(c1cnn2ccccc12)N1CCc2[nH]cnc2[C@H]1c1cc2ccccc2cn1 [Example 431]
4. O=C(c1nnc(-c2ccc(F)cc2)o1)N1CCc2[nH]cnc2[C@H]1c1cc2ccccc2cn1 [Example 342]

["1000 to 5000 nM", "< 500 nM", "< 500 nM", "< 500 nM"]
